tested on: kinases other than AKT1; assay: SelectScreen kinase panel (Invitrogen); format: biochemical; details: number of kinases other than AKT1 with >=80% at 10 uM
readout.type: >=80% in Selectscreen (at 10 uM) other than AKT1

molecule: C[C@]1(O)C[C@@](N)(c2ccc(-c3oc4ncn(CC(F)(F)F)c(=O)c4c3-c3ccccc3)cc2)C1
target.of.assay: kinases other than AKT1
result: ** (1-2 kinases)
//
molecule: C[C@]1(O)C[C@](N)(c2ccc(-c3oc4ncn(CC(F)(F)F)c(=O)c4c3-c3ccccc3)cc2)C1
target.of.assay: kinases other than AKT1
result: * (>2 kinases)
//
molecule: C[C@]1(O)C[C@@](N)(c2ccc(-c3sc4ncn(CC(F)(F)F)c(=O)c4c3-c3ccccc3)cc2)C1
target.of.assay: kinases other than AKT1
result: ** (1-2 kinases)
//
molecule: NC1(c2ccc(-c3oc4ncn(CC(F)(F)F)c(=O)c4c3-c3ccccc3)cc2)CCC1 [Compound A, reference compound]
target.of.assay: kinases other than AKT1
result: * (>2 kinases)

Cited source for all entries: patent US9156853B2
